# test system: T1, P974_AMBCA (Amblyomma cajennense, UniProt A0A023FDY8 22-118);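 further: biolayer interferometry on an Octet system: chemokines at several doses tested against tick chemokine-binding proteins, association, equilibrium and dissociation curves fitted to derive Kd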
# T1 sequence: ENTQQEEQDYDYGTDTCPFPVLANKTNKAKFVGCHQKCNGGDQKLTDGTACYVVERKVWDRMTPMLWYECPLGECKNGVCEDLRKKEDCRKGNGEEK
# test description: BLI
Label key: 1 means Kd under 10 nM; 0 means Kd of 10 nM or more.

Answered examples (4):
[ask] For CCL17_HUMAN (ligand) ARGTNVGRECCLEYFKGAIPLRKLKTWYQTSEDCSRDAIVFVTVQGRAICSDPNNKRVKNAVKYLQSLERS , is the recorded Kd below the cut-off of 10 nM?
[reply] 0

[ask] For CCL8_HUMAN (ligand, UniProt P80075 24-99, looked up) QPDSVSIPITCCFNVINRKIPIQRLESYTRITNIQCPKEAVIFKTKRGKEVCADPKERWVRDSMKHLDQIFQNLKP , is the recorded Kd below the cut-off of 10 nM?
[reply] 1

[ask] For CCL4_HUMAN (ligand) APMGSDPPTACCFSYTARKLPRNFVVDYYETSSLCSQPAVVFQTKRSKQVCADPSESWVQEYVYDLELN , is the recorded Kd below the cut-off of 10 nM?
[reply] 0

[ask] For CCL14_HUMAN (ligand) TESSSRGPYHPSECCFTYTTYKIPRQRIMDYYETNSQCSKPGIVFITKRGHSVCTNPSDKWVQDYIKDMKEN , is the recorded Kd below the cut-off of 10 nM?
[reply] 0

As a next step, examine the binder that follows.
[ask] For CCL3L1_HUMAN (ligand) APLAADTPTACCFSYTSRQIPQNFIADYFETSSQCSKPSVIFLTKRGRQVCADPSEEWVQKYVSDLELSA , is the recorded Kd below the cut-off of 10 nM?
[reply] 0

Each recorded value in this set is attributed to patent US20240034757A1.
